Kindly state viability, T/C for each of the entries shown.
# System: 439559-082-T-J2-PDC complex spheroid growth;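 note: spheroids exposed to agents for 7 days starting day 3 after seeding; percent of DMSO vehicle control viability with 100% = vehicle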
# Assay Notes: Anticancer human tumor 439559-082-T-J2-PDC patient-derived colon adenocarcinoma cell line growth inhibition [Asc]
# Conditions Used: second compound 3 µM; first compound 0.01 µM; hits give low values
State the answer as a number, implicitly in %.

**Query** Reported viability, T/C for 439559-082-T-J2-PDC complex spheroid growth, given NC1CCC(NC2CC2c2ccccc2)CC1 (stereo unspecified) + CCN1C(C(=O)NC23CCC(C(=O)O)(CC2)CC3)C(c2cccc(Cl)c2F)C2(C(=O)Nc3cc(Cl)ccc32)C12CCCCC2 ?
**Result** 98.6

**Query** Reported viability, T/C for 439559-082-T-J2-PDC complex spheroid growth, given Cn1ncnc1[C@H]1c2n[nH]c(=O)c3cc(F)cc(c23)N[C@@H]1c1ccc(F)cc1 + CCN1C(C(=O)NC23CCC(C(=O)O)(CC2)CC3)C(c2cccc(Cl)c2F)C2(C(=O)Nc3cc(Cl)ccc32)C12CCCCC2 ?
**Result** 86.6

**Query** Reported viability, T/C for 439559-082-T-J2-PDC complex spheroid growth, given COc1c(OCCCN2CCOCC2)ccc2c3n(c(=NC(=O)c4cnc(N)nc4)nc12)CCN3 + CCN1C(C(=O)NC23CCC(C(=O)O)(CC2)CC3)C(c2cccc(Cl)c2F)C2(C(=O)Nc3cc(Cl)ccc32)C12CCCCC2 ?
**Result** 83.8

**Query** Reported viability, T/C for 439559-082-T-J2-PDC complex spheroid growth, given CNC(C)C(=O)NC1CN(S(=O)(=O)c2cccc(S(=O)(=O)N3CCC4CCC(C(=O)NC(c5ccccc5)c5ccccc5)N4C(=O)C(NC(=O)C(C)NC)C3)c2)CCC2CCC(C(=O)NC(c3ccccc3)c3ccccc3)N2C1=O (stereo unspecified) + CCN1C(C(=O)NC23CCC(C(=O)O)(CC2)CC3)C(c2cccc(Cl)c2F)C2(C(=O)Nc3cc(Cl)ccc32)C12CCCCC2 ?
**Result** 102

**Query** Reported viability, T/C for 439559-082-T-J2-PDC complex spheroid growth, given CCN1CCN(Cc2ccc(Nc3ncc(F)c(-c4cc(F)c5nc(C)n(C(C)C)c5c4)n3)nc2)CC1 + CCN1C(C(=O)NC23CCC(C(=O)O)(CC2)CC3)C(c2cccc(Cl)c2F)C2(C(=O)Nc3cc(Cl)ccc32)C12CCCCC2 ?
**Result** 94

**Query** Reported viability, T/C for 439559-082-T-J2-PDC complex spheroid growth, given O=C(c1ccc(F)c(F)c1Nc1ccc(I)cc1F)N1CC(O)([C@@H]2CCCCN2)C1 + CCN1C(C(=O)NC23CCC(C(=O)O)(CC2)CC3)C(c2cccc(Cl)c2F)C2(C(=O)Nc3cc(Cl)ccc32)C12CCCCC2 ?
**Result** 81.7
